Biological target: T1, SinR W104L (Bacillus subtilis, UniProt P06533 1-111, W104L)
T1 sequence: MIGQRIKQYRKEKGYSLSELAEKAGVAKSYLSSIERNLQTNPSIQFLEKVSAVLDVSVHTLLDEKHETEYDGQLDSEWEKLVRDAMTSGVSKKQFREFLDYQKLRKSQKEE
Assay: fluorescence polarization; 10 mM Tris-HCl pH 8.0, 100 mM NaCl, 1 mM EDTA; 10 nM labeled duplex, SinR diluted from 20 uM; temperature not stated
Settings: protein: recombinant; tags: none (pET24a, native stop codon in primer G10); chain copies: 2; label: 5'-fluorescein (FAM) on strand 1; blunt
measurementName: pKd
// pKd is dimensionless: -log10 of concentration (M)

Reported pKd for eps operator inverted-repeat SinR box duplex, 21 bp (FAM1721/C-1723) (dsDNA) DNA 1: ATTGTTCTCTAAAGAGAACTT DNA 2: AAGTTCTCTTTAGAGAACAAT : what is it?
5.72
